- Tested on: Cavia porcellus
- run description: Reduction of LDL level in chow fed Hartley guinea pig serum at 20 mg/kg/day, po for 7 days relative to rosuvastatin
- Type: functional, Hartely
- Parameters: scale not given: the % may be the effect or the level left
experimental readout: Activity (%)
Supply the numeric figure in %, leaving out any unit text.

Quick check: Activity of `Cc1cccc(CN(C)C(=O)c2nn(-c3ccc(F)cc3)c(CC[C@@H](O)C[C@@H](O)CC(=O)[O-])c2C(C)C)c1.[Na+]` ?
-15

For `CC(C)c1c(C(=O)N(C)Cc2cccc(F)c2F)nn(-c2ccc(F)cc2)c1CC[C@@H](O)C[C@@H](O)CC(=O)[O-].[Na+]` then?
-45

Okay, and `CC(C)c1c(C(=O)N(C)Cc2ccc(F)cc2F)nn(-c2ccc(F)cc2)c1CC[C@@H](O)C[C@@H](O)CC(=O)[O-].[Na+]` ?
-32

Continue with `CC(C)c1nc(N(C)S(C)(=O)=O)nc(-c2ccc(F)cc2)c1/C=C/[C@@H](O)C[C@@H](O)CC(=O)O`
-42

# repeat for `CC(C)c1c(C(=O)N(C)Cc2ccccc2)nn(-c2ccc(F)cc2)c1CC[C@@H](O)C[C@@H](O)CC(=O)[O-].[Na+]`
-20

// query: `COCc1cccc(CNC(=O)c2nn(-c3ccc(F)cc3)c(CC[C@@H](O)C[C@@H](O)CC(=O)[O-])c2C(C)C)c1.[Na+]`
-42

Now this one: `Cc1ccc(CNC(=O)c2nn(-c3ccc(F)cc3)c(CC[C@@H](O)C[C@@H](O)CC(=O)[O-])c2C(C)C)cc1.[Na+]`
-41

---

- target of assay: 3-hydroxy-3-methylglutaryl-coenzyme A reductase (Rattus norvegicus)
- Sequence (P51639 whole entry): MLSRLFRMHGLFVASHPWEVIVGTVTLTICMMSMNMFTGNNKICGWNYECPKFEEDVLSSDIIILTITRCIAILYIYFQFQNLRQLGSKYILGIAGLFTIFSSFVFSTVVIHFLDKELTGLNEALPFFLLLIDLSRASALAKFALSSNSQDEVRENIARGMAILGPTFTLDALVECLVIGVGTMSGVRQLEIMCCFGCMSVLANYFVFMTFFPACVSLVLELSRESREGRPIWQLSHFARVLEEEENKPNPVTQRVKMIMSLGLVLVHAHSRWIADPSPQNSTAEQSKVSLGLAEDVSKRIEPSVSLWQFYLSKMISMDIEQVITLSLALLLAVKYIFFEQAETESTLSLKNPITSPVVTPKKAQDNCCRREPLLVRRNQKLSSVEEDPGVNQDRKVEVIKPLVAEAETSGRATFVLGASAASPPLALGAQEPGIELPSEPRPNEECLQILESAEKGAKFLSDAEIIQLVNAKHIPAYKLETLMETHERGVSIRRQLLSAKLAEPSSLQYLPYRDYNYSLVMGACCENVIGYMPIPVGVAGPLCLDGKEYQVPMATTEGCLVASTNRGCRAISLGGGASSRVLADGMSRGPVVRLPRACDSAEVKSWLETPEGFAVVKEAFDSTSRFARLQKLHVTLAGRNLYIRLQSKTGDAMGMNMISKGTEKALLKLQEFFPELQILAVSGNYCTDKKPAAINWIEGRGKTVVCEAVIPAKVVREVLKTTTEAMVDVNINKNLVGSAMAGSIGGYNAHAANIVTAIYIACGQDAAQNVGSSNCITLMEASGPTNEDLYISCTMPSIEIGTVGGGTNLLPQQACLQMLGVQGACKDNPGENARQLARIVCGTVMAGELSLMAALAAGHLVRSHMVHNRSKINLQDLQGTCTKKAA
experimental readout: IC50 (nM)
Your answer should be a plain number; it is taken to be in nM.

Which IC50 is listed for `CC(C)c1c(C(=O)NCc2ccc(C(=O)N(C)C)cc2)nn(-c2ccc(F)cc2)c1CC[C@@H](O)C[C@@H](O)CC(=O)O` ?
25

Consider next the compound CC(C)c1c(C(=O)N2CCCC2c2ccccc2)nn(-c2ccc(F)cc2)c1CC[C@@H](O)C[C@@H](O)CC(=O)O (some centres not stated) in the same way.
7.3

Lookup `CC(C)c1nc(N(C)S(C)(=O)=O)nc(-c2ccc(F)cc2)c1/C=C/[C@@H](O)C[C@@H](O)CC(=O)O`
3.1

Record: `Cc1ccc(CN(C)C(=O)c2nn(-c3ccc(F)cc3)c(CC[C@@H](O)C[C@@H](O)CC(=O)O)c2C(C)C)cc1`
9.9

Another compound to look at: CC(C)c1c(C(=O)N2CCCCC2c2ccccc2)nn(-c2ccc(F)cc2)c1CC[C@@H](O)C[C@@H](O)CC(=O)O (some centres not stated)
6.1

Also check `Cc1ccc(CNC(=O)c2nn(-c3ccc(F)cc3)c(CC[C@@H](O)C[C@@H](O)CC(=O)[O-])c2C(C)C)cc1.[Na+]`
1.9

Okay, and `CC(C)c1c(C(=O)NCc2ccccc2)nn(-c2ccc(F)cc2)c1CC[C@@H](O)C[C@@H](O)CC(=O)O` ?
4.7
